Tested on: antibodies in sera from SARS patients (sera 1a, 1b, 2, 6, 37, 62, London, SARS-yellow, SARS-green)
Format: binding, human
Reported Binding of serum 62 to linear peptides of protein E of SARS-CoV Urbani values for the following sequences.
// return just the number, without any unit appended

> print(dat)
               seq  result.number
1  FLLVTLAILTALRLC            0.3
2  VLLFLAFVVFLLVTL            0.8
3  ALRLCAYCCNIVNVS            0.7
4  SEETGTLIVNSVLLF            0.7
5  VFLLVTLAILTALRL            0.6
6  LAILTALRLCAYCCN            0.8

Req: Sample `EETGTLIVNSVLLFL` — what was its Binding of serum 62 to linear peptides of protein E of SARS-CoV Urbani?
Resp: 0.7

Req: Same thing, different sequence: `LVTLAILTALRLCAY`
Resp: 0.7
